# Experimental Context: buffer; pH 7.4; 200.0 µM
Exercise: state measured solubility kinetic for each of the compounds provided.

Note down solubility kinetic recorded for C=CC(=O)NC(NC(=O)C=C)c1ccccc1F
> 37.2 µg/mL

Note down solubility kinetic recorded for COc1ccc(CN(C)C2CCN(C)CC2)cc1OC
38.3 µg/mL

Note down solubility kinetic recorded for O=C1/C(=C/c2ccccn2)SC(=S)N1CCc1ccccc1
0.4 µg/mL

Note down solubility kinetic recorded for O=C(COC(=O)c1ccc(Br)c(S(=O)(=O)N2CCOCC2)c1)NC1CC1
> 67.1 µg/mL

Note down solubility kinetic recorded for O=C(CCCNC(=O)c1ccc(Cl)cc1)Nc1ncccc1O
> 50.1 µg/mL

Note down solubility kinetic recorded for COc1ccc(C23NCCN2C(=O)c2ccccc23)cc1 (configuration not stated)
> 42 µg/mL

Note down solubility kinetic recorded for CCN1c2ccccc2N(C)C1(C)c1ccccc1 (configuration not stated)
21.5 µg/mL

Note down solubility kinetic recorded for C[C@@H](C(=O)Nc1ccc(SC(F)F)cc1)N1C(=O)C2CCCCC2C1=O (some centres not stated)
52.5 µg/mL

Note down solubility kinetic recorded for O=C(COc1ccc2ccccc2c1)Nc1cccnc1Cl
< 0.3 µg/mL

Note down solubility kinetic recorded for COc1ccc(-c2nc(N)ncc2-c2ccc(Cl)cc2)c(O)c1
< 0.2 µg/mL

Note down solubility kinetic recorded for CN(C(=O)CN1CCN(c2ccccc2F)CC1)C1CCCc2ccccc21 (configuration not stated)
> 57.2 µg/mL

Note down solubility kinetic recorded for CC1(NC(=S)Nc2ccccc2)CCS(=O)(=O)C1 (configuration not stated)
> 42.7 µg/mL

====

# Experimental Context: buffer; pH 7.4; 200.0 µM
Exercise: state measured solubility kinetic for each of the compounds provided.
Only the number, expressed in µg/mL, is required.

Note down solubility kinetic recorded for Cc1cccc(C(=O)NCCNC(=O)c2ccco2)c1
34.5

Note down solubility kinetic recorded for CCOC(=O)c1sc(S(C)(=O)=O)c2c1CCc1conc1-2
4

Note down solubility kinetic recorded for O=C(CN1C(=O)C(=O)N(Cc2ccco2)C1=O)NC1CCCCC1
45.8

Note down solubility kinetic recorded for O=C(COC(=O)/C=C/c1ccc(S(=O)(=O)N2CCOCC2)cc1)Nc1ccc(F)c(F)c1F
11.6

Note down solubility kinetic recorded for Cc1cc(C)cc(OCc2nc(-c3cccnc3)no2)c1
13.3

====

# Experimental Context: buffer; pH 7.4; 200.0 µM
Measured Property: solubility kinetic

Note down solubility kinetic recorded for COC(=O)c1ccccc1NC(=O)c1sc(Cl)nc1C
44 µg/mL

Note down solubility kinetic recorded for CO/N=C/c1c(-c2ccc(Cl)cc2)nc2cc(C)ccn12
0.3 µg/mL

Note down solubility kinetic recorded for COc1cc(NC(=O)C[n+]2ccc(C(=O)c3ccccc3)cc2)cc(OC)c1.[Cl-]
> 61.9 µg/mL

Note down solubility kinetic recorded for Cn1ccc(C(=O)Nc2ccc3c(c2)OCCO3)n1
> 38.9 µg/mL

Note down solubility kinetic recorded for O=C1NC(=O)/C(=C\c2ccc(OCc3ccccc3)cc2)S1
< 0.7 µg/mL

Note down solubility kinetic recorded for CC(C)CNC(=O)[C@@H]1CSC2c3ccccc3C(=O)N21 (stereo partly specified)
> 43.6 µg/mL

====

# Experimental Context: buffer; pH 7.4; 200.0 µM
Exercise: state measured solubility kinetic for each of the compounds provided.
Only the number, expressed in µg/mL, is required.

Note down solubility kinetic recorded for CCOC(=O)c1sc(NC(=O)CCN2C(=O)C3CCCCC3C2=O)cc1C (centres undefined)
15

Note down solubility kinetic recorded for COc1ccc(CNc2cc(C)nc3ccc(OC)cc23)cc1
37.8

Note down solubility kinetic recorded for C/C(=N\O)C(=O)C(CN1CCCCC1)CN1CCCCC1
30.2

Note down solubility kinetic recorded for COc1ccc2nc(N(CCN(C)C)C(=O)c3ccc4ccccc4c3)sc2c1.Cl
24.9

Note down solubility kinetic recorded for COc1ccc([N+](=O)[O-])c(OC)c1C(=O)Nc1ccc(F)cc1F
33.9

Note down solubility kinetic recorded for COc1ccc(NC(=O)c2cccnc2SC)cc1OC
19.2

Note down solubility kinetic recorded for COc1ccc(C(=O)Nc2cc3c4c(c2)C(C)C(=O)N4CCC3)cc1 (centres undefined)
38.6

Note down solubility kinetic recorded for COc1ccc(CNc2ccc([N+](=O)[O-])cc2C)cc1
2.1

Note down solubility kinetic recorded for Cc1cnc(NC(=O)Cc2ccccc2F)s1
3.4

Note down solubility kinetic recorded for COc1ccc(C(=O)CCC(=O)NC2=NCCS2)cc1
14.6

Note down solubility kinetic recorded for CSc1nc2c(c(=O)[nH]c(=O)n2C)n1CCCc1ccccc1
24

Note down solubility kinetic recorded for O=C(NC1CCC(O)CC1)c1ccccc1OCc1ccc(F)cc1 (centres undefined)
46.4

Note down solubility kinetic recorded for O=C(Nc1nc2ccccc2s1)c1ccccc1[N+](=O)[O-]
2.9

Note down solubility kinetic recorded for COc1ccc(CCC(=O)NC2CCCc3ccccc32)cc1OC (centres undefined)
47.5

Note down solubility kinetic recorded for O=C(COc1ccc([N+](=O)[O-])cc1)N1CCc2ccccc2C1
37.5

Note down solubility kinetic recorded for Cc1cc(NC(=O)CSc2ncnc3sccc23)no1
19.3

Note down solubility kinetic recorded for CC(C)(Cc1ccc(O)cc1)NC(=O)c1ccccc1
36.7

Note down solubility kinetic recorded for CCOC1=C/C(=C/c2c(N)n3oc(C)cc3nc2=O)C=CC1=O
11.9

Note down solubility kinetic recorded for COc1ccc(OC)c(S(=O)(=O)N2CCNCC2)c1
38.1

Note down solubility kinetic recorded for COc1ccc(/C=C/C(=O)OC(C)CN2CCCCC2)cc1.Cl (centres undefined)
49.4

Note down solubility kinetic recorded for O=C(CSc1ccccc1)Nc1ccc(N2CCOCC2)c(F)c1
2.7

Note down solubility kinetic recorded for COc1ccc(C2=NOC(CNC(=S)N3CCOCC3)C2)cc1 (centres undefined)
12.8

Note down solubility kinetic recorded for COc1ccc2cc(C(=O)N3CCN(c4cccc(C)c4C)CC3)[nH]c2c1
1.2

Note down solubility kinetic recorded for COc1cc2[nH]c(=S)n(C3CC3)c(=O)c2cc1OC
7.6

Note down solubility kinetic recorded for COc1ccccc1Oc1ccc2c(c1)C(=O)N(CC1CCCO1)C2=O (centres undefined)
40.3

Note down solubility kinetic recorded for CC(=O)Nc1ccc(NC(=S)NC(=O)C2CC2)cc1
32.2

Note down solubility kinetic recorded for CCOC(=O)C1=C(C)Nc2ccccc2S1
17.9

Note down solubility kinetic recorded for O=C(OCC(=O)N1CCc2ccccc21)c1ccc([N+](=O)[O-])o1
8.2

Note down solubility kinetic recorded for CCCS(=O)(=O)N1CCCC(C(=O)Oc2ccccc2Cl)C1 (centres undefined)
45.6

====

# Experimental Context: buffer; pH 7.4; 200.0 µM
Exercise: state measured solubility kinetic for each of the compounds provided.
Only the number, expressed in µg/mL, is required.

Note down solubility kinetic recorded for N/C(=N\OC(=O)c1cccc(C(F)(F)F)c1)c1cnccn1
2.4

Note down solubility kinetic recorded for O=C(CCCN1CCC(O)(c2ccc(Cl)cc2)CC1)c1ccc(F)cc1
23.5

Note down solubility kinetic recorded for CN(C)c1ccc(NC(=O)c2ccc(N3CCOCC3)nc2)cc1
20.4

Note down solubility kinetic recorded for CC(=O)c1ccc(NC(=O)NCc2ccc(F)cc2)cc1
7.8

Note down solubility kinetic recorded for O=c1c2ccccc2nc2n1CCS2(=O)=O
34.6

Note down solubility kinetic recorded for CC(=O)Nc1nc2ccccc2n1Cc1ccc(C)cc1
8.1

Note down solubility kinetic recorded for COc1ccccc1C1CCN(c2ccc(CO)cc2[N+](=O)[O-])CC1
7.8

Note down solubility kinetic recorded for Cc1ccccc1C(=O)N1CCC(C(=O)NC2CCCC2)CC1
38.6

Note down solubility kinetic recorded for CC(C)(C)C(=O)Nc1c(Cl)cccc1OC(F)(F)F
34.2

====

# Experimental Context: buffer; pH 7.4; 200.0 µM
Exercise: state measured solubility kinetic for each of the molecules provided.
Only the number, expressed in µg/mL, is required.

Note down solubility kinetic recorded for FC(F)(F)c1ccc(NCCc2ccccc2)nc1
3.7

Note down solubility kinetic recorded for CCc1sc(C(=O)N2CCCN(C)CC2)cc1Br
46.5

Note down solubility kinetic recorded for O=C(NC1CC1)c1sc2cc(F)ccc2c1Cl
9.4

====

# Experimental Context: buffer; pH 7.4; 200.0 µM
Measured Property: log10 of solubility kinetic (log10 of the value in µg/mL)
Base-10 log of solubility kinetic, unit µg/mL.

Note down log10 of solubility kinetic recorded for COC(=O)c1ccc(N2C(=O)C3CC(C)=C(C)CC3C2=O)cc1 (centres undefined)
1.26

Note down log10 of solubility kinetic recorded for CCN(CC)c1ccc(N=Cc2c(O)[nH]c(=O)[nH]c2=O)cc1
0.76

Note down log10 of solubility kinetic recorded for OC(C#CCN1CCCCC1)(c1ccccc1)c1ccccc1
1.11

Note down log10 of solubility kinetic recorded for O=C(N/C=C\n1cnc2cc(C(F)(F)F)ccc21)c1ccc([N+](=O)[O-])cc1
0.45

Note down log10 of solubility kinetic recorded for Cc1ccn2cc(-c3ccc(Br)cc3)nc2c1
0.08

Note down log10 of solubility kinetic recorded for NS(=O)(=O)c1ccc(NC(=O)COC(=O)c2ncc(Cl)c(Cl)c2Cl)cc1
1.74

Note down log10 of solubility kinetic recorded for COC(=O)c1ccc(CNC(=O)COC(=O)c2cc(Cl)ccc2O)cc1
0.85

Note down log10 of solubility kinetic recorded for N#Cc1cc2ccccc2nc1SCC(=O)NC1CC1
0.51

Note down log10 of solubility kinetic recorded for CN1CCC(=C(c2ccccc2)c2ccc(Br)cc2)CC1.Cl
1.73

Note down log10 of solubility kinetic recorded for CCOc1cc(CN2CCN(c3ncccn3)CC2)ccc1OC
1.64

Note down log10 of solubility kinetic recorded for S=C1NCN(C2CCCCC2)CN1CCc1ccccc1
1.21

Note down log10 of solubility kinetic recorded for CCOC(=O)C1CCCN(C(=S)Nc2ccc(OC)cc2)C1 (centres undefined)
1.66

Note down log10 of solubility kinetic recorded for COc1cccc(NC(=O)c2cnc[nH]2)c1
1.48

Note down log10 of solubility kinetic recorded for Cc1ccc(NC(=O)/C(Cl)=C\c2ccccc2)cc1
0.15

Note down log10 of solubility kinetic recorded for COc1ccc(CCNc2nc(C)cc(C)c2C#N)cc1OC
1.51

Note down log10 of solubility kinetic recorded for Cc1ccc(C(=O)C(C)OC(=O)c2ccc(Cl)nc2)cc1 (centres undefined)
1.53

Note down log10 of solubility kinetic recorded for Nc1nc(Cl)cc(=O)n1Cc1ccc(Cl)cc1
1.45

Note down log10 of solubility kinetic recorded for Nc1cc(=O)[nH]c(SCC(=O)Nc2cccc(S(=O)(=O)N3CCCCCC3)c2)n1
1.07

Note down log10 of solubility kinetic recorded for COc1ccc(C(=O)Nc2ccc3c(c2)n(C)c(=O)n3C)cc1OC
0.92

Note down log10 of solubility kinetic recorded for Cc1cccc(NC(=O)COC(=O)c2ccc([N+](=O)[O-])o2)c1C
1.24

Note down log10 of solubility kinetic recorded for COc1cccc2[nH]c(C(=O)NCc3ccccc3)cc12.Cl
1.04

Note down log10 of solubility kinetic recorded for Cc1ccc(S(=O)(=O)c2ncccc2[N+](=O)[O-])cc1
1.61

Note down log10 of solubility kinetic recorded for Cc1ccc(C(=O)O/N=C(\N)Cc2cccs2)c(Cl)c1
1.18

Note down log10 of solubility kinetic recorded for COC(=O)c1ccccc1NC(=S)N1CCN(c2ccccc2)CC1
1.13

Note down log10 of solubility kinetic recorded for Oc1ccc(Cl)cc1CNc1cnc2ccccc2c1
0.08

Note down log10 of solubility kinetic recorded for COc1cc(C(C[N+](=O)[O-])c2c(C)cc3ccccn23)ccc1O (centres undefined)
0.95

Note down log10 of solubility kinetic recorded for O=C(NC1CCN(Cc2ccccc2Cl)CC1)c1ccccc1
1.68

Note down log10 of solubility kinetic recorded for CCC(C)[C@H](NC(=O)N1CCCCCC1)C(=O)OC (some centres undefined)
0.08

Note down log10 of solubility kinetic recorded for O=C(CSc1nc2ccc([N+](=O)[O-])cc2s1)NCC1CCCO1 (centres undefined)
1.70

Note down log10 of solubility kinetic recorded for CN1CCc2c(sc(/N=C/c3c[nH]c4ccccc34)c2C(N)=O)C1
1.01

Note down log10 of solubility kinetic recorded for COc1ccc([N+](=O)[O-])cc1NC(=O)COC(C)=O
1.55

Note down log10 of solubility kinetic recorded for CCOc1ccc(-c2csc3ncn(-c4ccc(OC)cc4)c(=O)c23)cc1
-0.40

Note down log10 of solubility kinetic recorded for COC(=O)c1ccc(NC(=O)Nc2ccc(OC)cc2)cc1
0.15
